- system-tested: Der pI (Dermatophagoides pteronyssinus)
- Construct: tissue SmithKline-Beecham, U.K (crude mite extract); host or cells: crude house dust mite extract
- Sequence (P08176 99-320): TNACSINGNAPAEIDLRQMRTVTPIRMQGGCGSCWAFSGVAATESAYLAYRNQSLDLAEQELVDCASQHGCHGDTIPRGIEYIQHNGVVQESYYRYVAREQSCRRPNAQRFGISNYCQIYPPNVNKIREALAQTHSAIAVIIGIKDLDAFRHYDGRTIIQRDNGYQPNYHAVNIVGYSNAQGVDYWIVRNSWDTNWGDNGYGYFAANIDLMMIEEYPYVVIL
- protocol-summary: Der pI substrate assay with FRET peptides (fluorescence, Km, kcat/Km)
- Format: biochemical, house dust mite
- Parameters: key: NS indicates that the peptide was not hydrolysed by Der pI.; NM indicated that the peptide was a substrate for Der pI, but the Km was not measured.; NM^a indicates that the peptide was a substrate for Der pI, and its cleavage was followed by HPLC-MS showing hydrolysis to occur between-Nle-Ser-
- measurement-conditions: purified Der pI; peptides SEQ ID Nos. 1-76
Non-standard residues stand in square brackets, D forms with d. Residues, ends and D or L forms follow the SMILES beside them. *: point of attachment. Tyr(3-NO2) = N[C@@H](Cc1ccc(O)c([N+](=O)[O-])c1)C(=O)O; Hyp = O=C(O)[C@@H]1C[C@@H](O)CN1; 3Pal = N[C@@H](Cc1cccnc1)C(=O)O; hLeu = CC(C)CC[C@H](N)C(=O)O; Ac6c = NC1(C(=O)O)CCCCC1; Nle = CCCC[C@H](N)C(=O)O; Ac5c = NC1(C(=O)O)CCCC1; 2Abz = Nc1ccccc1C(=O)O; Piv = CC(C)(C)C(=O)*; Ahx = NCCCCCC(=O)O
quantity: substrate or not substrate for Der pI (symbols in Measured Km)

| compound | reported-measurement |
| --- | --- |
| CCCC[C@H](NC(=O)[C@H](C)NC(=O)[C@@H](NC(=O)c1ccccc1N)C(C)C)C(=O)N[C@@H](CO)C(=O)N[C@@H](Cc1ccc(O)c([N+](=O)[O-])c1)C(N)=O [Abz-Val-Ala-Nle-Ser-Tyr(NO2)-NH2] (H-[2Abz]VA[Nle]S[Tyr(3-NO2)]-NH2) | NM |
| CC(C)[C@H](NC(=O)c1ccccc1N)C(=O)N[C@@H](C)C(=O)N1C[C@H](O)C[C@H]1C(=O)N[C@@H](CO)C(=O)N[C@@H](Cc1ccc(O)c([N+](=O)[O-])c1)C(=O)N[C@@H](CC(=O)O)C(N)=O [Abz-Val-Ala-Hyp-Ser-Tyr(NO2)-Asp-NH2] (H-[2Abz]VA[Hyp]S[Tyr(3-NO2)]D-NH2) | NS |
| CCCC[C@H](NC(=O)[C@H](C)NC(=O)[C@@H](NC(=O)[C@H](Cc1ccccc1)NC(=O)c1ccccc1N)C(C)C)C(=O)N[C@@H](CO)C(=O)N[C@@H](Cc1ccc(O)c([N+](=O)[O-])c1)C(=O)N[C@@H](CC(=O)O)C(N)=O [Abz-Phe-Val-Ala-Nle-Ser-Tyr(NO2)-Asp-NH2] (H-[2Abz]FVA[Nle]S[Tyr(3-NO2)]D-NH2) | NM |
| CC(C)CC[C@H](NC(=O)[C@H](Cc1cccnc1)NC(=O)[C@@H](NC(=O)c1ccccc1N)C(C)C)C(=O)N[C@@H](CO)C(=O)N[C@@H](Cc1ccc(O)c([N+](=O)[O-])c1)C(=O)N[C@@H](CC(=O)O)C(N)=O [Abz-Val-3pyr-hLeu-Ser-Tyr(NO2)-Asp-NH2] (H-[2Abz]V[3Pal][hLeu]S[Tyr(3-NO2)]D-NH2) | NS |
| CCCC[C@H](NC(=O)[C@H](C)NC(=O)[C@@H](NC(=O)C(C)(C)C)C(C)C)C(=O)N[C@@H](CO)C(=O)N[C@@H](Cc1ccc(O)c([N+](=O)[O-])c1)C(N)=O [Piv-Val-Ala-Nle-Ser-Tyr(NO2)-NH2] (Piv-VA[Nle]S[Tyr(3-NO2)]-NH2) | NM^a |
| CCCC[C@H](NC(=O)[C@H](C)NC(=O)[C@@H](NC(=O)c1ccccc1N)C(C)C)C(=O)N[C@@H](CO)C(=O)N[C@@H](C)C(=O)N[C@@H](CC(=O)O)C(N)=O [Abz-Val-Ala-Nle-Ser-Ala-Asp-NH2] (H-[2Abz]VA[Nle]SAD-NH2) | NM |
| CCCC[C@H](NC(=O)[C@H](C)NC(=O)[C@@H](NC(=O)c1ccccc1N)C(C)C)C(=O)N[C@@H](CO)C(=O)NCCCCCC(=O)N[C@@H](CC(=O)O)C(N)=O [Abz-Val-Ala-Nle-Ser-eAHA-Asp-NH2] (H-[2Abz]VA[Nle]S[Ahx]D-NH2) | NM |
| CCCC[C@H](NC(=O)[C@H](C)NC(=O)[C@@H](NC(=O)c1ccccc1N)C(C)C)C(=O)N[C@@H](CO)C(=O)N[C@@H](Cc1ccccc1)C(=O)N[C@@H](CC(=O)O)C(N)=O [Abz-Val-Ala-Nle-Ser-Phe-Asp-NH2] (H-[2Abz]VA[Nle]SFD-NH2) | NM |
| CC(C)CC[C@H](NC(=O)[C@@H](C)NC(=O)[C@@H](NC(=O)c1ccccc1N)C(C)C)C(=O)N[C@@H](CO)C(=O)N[C@@H](Cc1ccc(O)c([N+](=O)[O-])c1)C(=O)N[C@@H](CC(=O)O)C(N)=O [Abz-Val-DAla-hLeu-Ser-Tyr(NO2)-Asp-NH2] (H-[2Abz]V[dA][hLeu]S[Tyr(3-NO2)]D-NH2) | NS |
| CCCC[C@H](NC(=O)c1ccccc1N)C(=O)N[C@@H](CO)C(=O)N[C@@H](Cc1ccc(O)c([N+](=O)[O-])c1)C(=O)N[C@@H](CC(=O)O)C(N)=O [Abz-Nle-Ser-Tyr(NO2)-Asp-NH2] (H-[2Abz][Nle]S[Tyr(3-NO2)]D-NH2) | NS |
| CC(C)CC[C@H](NC(=O)C1(NC(=O)[C@@H](NC(=O)c2ccccc2N)C(C)C)CCCC1)C(=O)N[C@@H](CO)C(=O)N[C@@H](Cc1ccc(O)c([N+](=O)[O-])c1)C(=O)N[C@@H](CC(=O)O)C(N)=O [Abz-Val-ACP-hLeu-Ser-Tyr(NO2)-Asp-NH2] (H-[2Abz]V[Ac5c][hLeu]S[Tyr(3-NO2)]D-NH2) | NS |
| CCCC[C@H](NC(=O)[C@H](C)NC(=O)[C@@H](NC(C)=O)C(C)C)C(=O)N[C@@H](CO)C(=O)N[C@@H](Cc1ccc(O)c([N+](=O)[O-])c1)C(=O)N[C@@H](CC(=O)O)C(N)=O [Ac-Val-Ala-Nle-Ser-Tyr(NO2)-Asp-NH2] (Ac-VA[Nle]S[Tyr(3-NO2)]D-NH2) | NS |
| CC(C)CC[C@H](NC(=O)[C@H](C)NC(=O)C1(NC(=O)c2ccccc2N)CCCCC1)C(=O)N[C@@H](CO)C(=O)N[C@@H](Cc1ccc(O)c([N+](=O)[O-])c1)C(=O)N[C@@H](CC(=O)O)C(N)=O [Abz-ACH-Ala-hLeu-Ser-Tyr(NO2)-Asp-NH2] (H-[2Abz][Ac6c]A[hLeu]S[Tyr(3-NO2)]D-NH2) | NS |
| CCCC[C@H](NC(=O)[C@H](C)NC(=O)[C@@H](NC(=O)[C@H](Cc1ccc(O)cc1)NC(=O)c1ccccc1N)C(C)C)C(=O)N[C@@H](CO)C(=O)N[C@@H](Cc1ccc(O)c([N+](=O)[O-])c1)C(=O)N[C@@H](CC(=O)O)C(N)=O [Abz-Tyr-Val-Ala-Nle-Ser-Tyr(NO2)-Asp-NH2] (H-[2Abz]YVA[Nle]S[Tyr(3-NO2)]D-NH2) | NM |
| CCCC[C@H](NC(=O)[C@H](C)NC(=O)[C@@H](NC(=O)c1ccccc1N)C(C)C)C(=O)N[C@@H](CO)C(=O)N[C@@H](Cc1ccc(O)cc1)C(=O)N[C@@H](CC(=O)O)C(N)=O [Abz-Val-Ala-Nle-Ser-Tyr-Asp-NH2] (H-[2Abz]VA[Nle]SYD-NH2) | NM |

This collection of values is drawn from patent US6528275B1.
